// provenance: patent US12304901B2

Assay: Mouse intravenous (IV) pharmacokinetic study of plasma and brain exposure with bioanalysis
Format: in vivo
Conditions: plasma, mouse NMRI male, IV 1 mg/kg, mean n=3
Procedure: A pharmacokinetic study of plasma and brain exposure in mice after IV administration of Example Compound 1 or Comparative Example Compound 1 was carried out following the protocol described in Loryan, I., et al, Pharm Res (2014) 31: 2203-2219. Comparative Example Compound 1 is 2-{2-Fluoro-6-[4-(hydroxymethyl)piperidin-1-yl]pyridin-3-yl}-1H-indol-5-ol, and has the following structure: […]
Endpoint: AUC(0-t) (ng·h/mL)
Give just the number in ng·h/mL; leave the unit off.

Request: Any idea what AUC(0-t) was measured for CO[C@H]1CCCN(c2ccc(-c3cc4cc(O)ccc4[nH]3)c(F)n2)C1 ?
Response: 264
